# Tested on: A498 renal
# testProtocol: NCI tumour cell line growth inhibition, 48 h
measureName: TGI

INSERT INTO results (compound, measurename, endpointvalue) VALUES
  ('O=c1nc2oc3ccc4ccccc4c3cc-2s1', 'TGI', '7.86 µM');

Proceed to the following item.
Enter recorded TGI with A498 renal for `CC(C)(Oc1ccc(Cl)cc1)C(=O)N(C(=O)N1CCC(c2ccccc2)CC1)c1ccccc1` here.
> 100 µM

---

# Test system: HOP-62 NSCLC
# testProtocol: NCI tumour cell line growth inhibition, 48 h
measureName: TGI

Previously resolved entries follow.
INSERT INTO assay_data (compound, endpointvalue) VALUES
  ('COc1ccc(C(=O)/C=C/c2c(Cl)c3c(c(OC)c2Cl)OCC(=O)N3)cc1', '6.96 µM'),
  ('C#CCSC(C=C=C)P(=O)(OC(C)C)OC(C)C (centres undefined)', '> 100 µM'),
  ('COC(=O)c1c(OC(C)=O)ccc2c1c1c(n2C)C(=O)c2ccccc2C1=O', '67.4 µM');

Consider the compound `O=C(Cn1c(C(=O)/C=C/c2cccs2)nc2ccccc21)c1ccc(Cl)cc1` . State its measured TGI.
> 100 µM

---

# Tested on: MDA-MB-435
Give your call using only these classes: true (active), false (inactive)

INSERT INTO results (compound, classassignment) VALUES
  ('CC(C)(O)CC(=O)NCCn1ccc2ncnc(Nc3ccc(Oc4cccc(C(F)(F)F)c4)c(Cl)c3)c21', 'false'),
  ('O=C(NN1C(=O)CSC12CCCC2)c1[nH]c2ccc(Br)cc2c1-c1ccccc1', 'false'),
  ('Nc1nc(Nc2ccc(C3CCC(N4CCOCC4)CC3)cc2)nn1-c1ccccn1 (stereo unspecified)', 'false'),
  ('Clc1nc(Cl)c2ncn(C/C=C/COc3cccc(OC/C=C/Cn4cnc5c(Cl)nc(Cl)nc54)c3)c2n1', 'false'),
  ('C[CH2][Sn]([CH2]C)([O]C(=O)C(OC(C)=O)c1ccccc1)[O]C(=O)C(OC(C)=O)c1ccccc1 (stereo unspecified)', 'false'),
  ('Cc1ccc(S(=O)(=O)Nc2cccc3[nH]c(C(F)(F)F)nc23)cc1', 'true'),
  ('C1CN(SSN2CCOCC2)CCO1', 'false'),
  ('CCN(CC)Cc1ccc(Nc2nccc(-c3cnn4ncccc34)n2)cc1', 'true');

Test call for this compound, please: `O=C(Nc1cccc(NC(=O)Nc2cc(C(F)(F)F)ccc2Cl)c1)Nc1cc(C(F)(F)F)ccc1Cl`
false

Test call for this compound, please: `COc1ccc(OC)c(-c2c(C#N)c(N)nc(N3CCOCC3)c2C#N)c1`
false

Test call for this compound, please: `O=C(Nc1ccc(Cl)c(Cl)c1)O/N=C\c1c(Cl)ccc([N+](=O)[O-])c1Cl`
false

---

# System: MCF7 breast
# testProtocol: NCI tumour cell line growth inhibition, 48 h
This section presents compounds with their documented TGI values.

INSERT INTO measurements (compound, testedsystem, endpointvalue) VALUES
  ('C/C=C(/COC(C)=O)C(=O)OC1C=C(C=O)C(C)(C)C=C1C (configuration not stated)', 'MCF7 breast', '> 100 µM');

Consider the compound `Cc1ccc2c(c1C)C(=O)/C(=C/c1ccccc1C(=O)O)C2` . State its measured TGI.
> 100 µM

Consider the compound `CC(=O)Oc1c2oc3ccc(Cl)cc3c(=O)c2c(O)c2ccsc12` . State its measured TGI.
> 100 µM

Consider the compound `COc1c(Cl)cc(NC(=S)C#N)cc1Cl` . State its measured TGI.
92.9 µM

Consider the compound `COc1ccc(C(=O)/C=C/c2c(Cl)c3c(c(OC)c2Cl)OCC(=O)N3)cc1` . State its measured TGI.
> 100 µM

Consider the compound `CN1CCN(CCCBr)CC1` . State its measured TGI.
> 100 µM

---

This section presents compounds with their documented TGI values.
# System: NCI-H226 lung
# testProtocol: NCI tumour cell line growth inhibition, 48 h

INSERT INTO measurements (compound, endpointvalue) VALUES
  ('CC1(C)C2C=CC1(C)C1(CC2)OCCO1 (stereo unspecified)', '> 100 µM'),
  ('O=c1cc(N2CCN(c3cc(=O)n4ccccc4n3)CC2)oc2ccccc12', '> 100 µM'),
  ('COc1ccc(NC(C)=O)cc1N1C(=O)/C(=C\c2cc(OC)c(OC)c(OC)c2)SC1c1ccccc1 (stereo unspecified)', '> 100 µM'),
  ('COc1ccc(C(=O)c2cc3c(N)c(C(=O)Nc4cccc5ccccc45)sc3nc2C)cc1', '> 50 µM'),
  ('O=c1oc2ccccc2cc1-c1cn2cc(Cl)ccc2n1', '> 57.3 µM');

Proceed to the following item.
Enter recorded TGI with NCI-H226 lung for COc1cc(C(C)c2cc3c(cc2OCCO)OCO3)cc(OC)c1OC (stereo unspecified) here.
> 100 µM

---

# System: SK-MEL-2 melanoma
# testProtocol: NCI tumour cell line growth inhibition, 48 h
This section presents compounds with their documented GI50 values.

Previously resolved entries follow.
INSERT INTO assay_data (compound, endpointvalue) VALUES
  ('CN1CC[C@@H](c2c(O)cc(O)c3c(=O)cc(-c4ccccc4Cl)oc23)[C@@H]1CO', '0.228 µM'),
  ('CN(C)c1ccc2c(c1)OC(N)=C(C#N)C2c1ccc2c(c1)CCO2 (centres undefined)', '0.0962 µM'),
  ('O=C(/C=C/c1ccc([N+](=O)[O-])cc1)c1ccc2c3c(cccc13)CC2', '> 100 µM'),
  ('COc1ccc(C2SC(C)C(=O)N2NC(=O)C(O)c2ccccc2)cc1OC (centres undefined)', '> 100 µM'),
  ('CCCOC(=O)N1CCN(/[N+]([O-])=N/Oc2ccc([N+](=O)[O-])cc2[N+](=O)[O-])CC1', '2.71 µM');

Consider the compound `Cc1cc(N2CCCC2)nc(N(CCNc2ccnc3cc(Cl)ccc23)Cc2ccco2)n1` . State its measured GI50.
18 µM

Consider the compound `CC1(C)[C@@H](OC(N)=O)[C@H]2O[C@H]2[C@]2(CO)[C@H]3CC[C@]4(C)[C@@H](c5ccc(=O)oc5)[C@@H](Cl)C[C@]4(O)C3=CC[C@@H]12` . State its measured GI50.
0.00818 µM

Consider the compound `CCc1ccc(NC(=O)COC(=O)c2cc([N+](=O)[O-])ccc2Sc2nnnn2C)cc1` . State its measured GI50.
23.3 µM

Consider the compound COc1ccc(/C=C2\CCCC3=C2NC(N)=NC3c2ccc(OC)c(OC)c2)cc1OC (centres undefined) . State its measured GI50.
9.59 µM

---

# Test system: A549 NSCLC
# testProtocol: NCI tumour cell line growth inhibition, 48 h; in the data active = GI50 below about 0.43 µM; inactive = the rest
Give your call using only these classes: yes (active), no (inactive)

INSERT INTO measurements (compound, classassignment) VALUES
  ('COc1ccc(C(=O)/C=C/c2c(Cl)c3c(c(OC)c2Cl)OCC(=O)N3)cc1', 'no');

Test call for this compound, please: `Cc1ccc(S(=O)(=O)Nc2cccc3[nH]c(C(F)(F)F)nc23)cc1`
no

Test call for this compound, please: CN(C)c1ccc2c(c1)OC(N)=C(C#N)C2c1ccc2c(c1)CCO2 (stereo not drawn)
yes

Test call for this compound, please: `COc1ccc(C(=O)c2cc3c(N)c(C(=O)Nc4cccc5ccccc45)sc3nc2C)cc1`
yes

Test call for this compound, please: `NC(=O)c1c(NC(=O)c2ccc3c(c2)OCO3)sc2c1CCC(=O)C2`
no

---

This section presents molecules with their documented TGI values.
# Test system: RXF 393 renal
# testProtocol: NCI tumour cell line growth inhibition, 48 h
Please respond with the number in µM and leave the unit unwritten.

Previously resolved entries follow.
INSERT INTO results (molecule, endpointvalue) VALUES
  ('CC1(O)CC(=O)c2c(cc3ccc(-c4c5c(c(O)c6c(O)cccc46)C(=O)CC(C)(O)C5)c(O)c3c2O)C1 (configuration not stated)', 1.11),
  ('COc1ccc(C(SC2C(O)C(CO)OC2n2ccc(N)nc2=O)(c2ccccc2)c2ccc(OC)cc2)cc1 (configuration not stated)', 31.5),
  ('CCOc1cc2ncc(C#N)c(Nc3ccc(OCc4ccccn4)c(Cl)c3)c2cc1NC(=O)/C=C/CN(C)C', 2.28),
  ('CCN(CC)Cc1ccc(Nc2nccc(-c3cnn4ncccc34)n2)cc1', 0.0147);

Proceed to the following item.
Consider the molecule C=C1C(=O)OC2C1C(OC(=O)/C(C)=C/C)CC(O)(CCl)C1C(O)C3OC3(C)C21O (configuration not stated) . State its measured TGI.
26

---

This section presents compounds with their documented TGI values.
# System: SK-MEL-28 melanoma
# testProtocol: NCI tumour cell line growth inhibition, 48 h

Consider the compound `Cc1ccc2c(c1C)C(=O)/C(=C/c1ccccc1C(=O)O)C2` . State its measured TGI.
> 100 µM

Consider the compound `COc1ccc(/C=C\c2cc(OC)c(OC)c(OC)c2)cc1OC` . State its measured TGI.
> 100 µM

Consider the compound `O=C1c2ccccc2-c2c1c1ccccc1c(=O)n2CCN1CCOCC1` . State its measured TGI.
> 100 µM

Consider the compound CCOC(=O)C(NC(=O)CC)(Nc1cc(C)on1)C(F)(F)F (configuration not stated) . State its measured TGI.
> 100 µM

Consider the compound CC1CC/C(=C\c2ccc(Cl)cc2)C2OC(N)=C(C#N)C(c3ccc(Cl)cc3)=C12 (configuration not stated) . State its measured TGI.
37.5 µM

Consider the compound `COc1ccc(C)cc1Nc1nnc(-c2ccccc2N)s1` . State its measured TGI.
> 100 µM

Consider the compound Cc1c2c(n(CCc3ccc(Cl)cc3)c1C)NC(c1ccccc1)C(C#N)S2(=O)=O (configuration not stated) . State its measured TGI.
> 100 µM

Consider the compound COc1ccc(NC(C)=O)cc1N1C(=O)/C(=C\c2cc(OC)c(OC)c(OC)c2)SC1c1ccccc1 (configuration not stated) . State its measured TGI.
> 100 µM

Consider the compound `CC(=O)Nc1ccc(OC2=CCN(C)CC2)cc1` . State its measured TGI.
> 100 µM

Data credit: PubChem BioAssay (NCI)
